target: T1, human PILRA, c-term His-Avi tag (human, UniProt Q9UKJ1 20-197, limits assumed); test: SPR (Biacore), antibody captured, PILRA as analyte
T1 construct: not shown: C-terminal His-Avi tag
T1 sequence (Q9UKJ1 20-197 limits assumed): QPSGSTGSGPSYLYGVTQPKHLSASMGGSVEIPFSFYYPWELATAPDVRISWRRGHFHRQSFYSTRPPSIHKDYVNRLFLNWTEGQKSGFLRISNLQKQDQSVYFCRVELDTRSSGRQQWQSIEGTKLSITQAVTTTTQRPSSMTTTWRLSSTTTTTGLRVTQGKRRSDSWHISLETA
Below, each entry is listed alongside its reported Kd.
Readout Label: Kd

Binder: A10 (antibody, V domains shown, phage campaign) VH: QVQLVQSGAEVKKPGASVKVSCKASGYTFTDYYIHWVRQAPGQGLEWMGWMNPNSGNTGYAQKFQGRVTMTRDTSTSTVYMELSSLRSEDTAVYYCAREGSSGWYVDYWGQGTLVTVSS VL: DIQMTQSPSSLSASVGDRVTITCQASQDISQFLNWYQQKPGKAPKLLIYDAYSLQSGVPSRFSGSGSGTDFTLTISSLQPEDFATYYCQQANSFPLTFGQGTKVEIK
Readout Label: Kd
Test Result: 42.9 nM
--
Binder: E19 (antibody, V domains shown, phage campaign; same VH/VL as A13) VH: QVQLVQSGAEVKKPGSSVKVSCKASGYLFSDYAMNWVRQAPGQGLEWVGWIIPNSGGTKFAQTFQGRVTITADESTSTAYMELSSLRSEDTAVYYCAREHGVVPADHYYYGMDVWGQGTTVTVSS VL: EIVMTQSPATLSVSPGERATLSCRASQSISSSYLAWYQQKPGQAPRLLIYGASTRATGIPARFSGSGSGTEFTLTISSLQSEDFAVYYCQQYGRFPWTFGQGTKVEIK
Readout Label: Kd
Test Result: 86.1 nM
--
Binder: hPA-005 (antibody, V domains shown) VH: QVILKESGPGILQSSQTLSLTCSFSGFSLSTFGMGVGWIRQPSGKGLESLAHIWWDDDKFYNPALKSRLTISKDTSKSQVFLKIANVDTADIATYYCTRIEDYGSYFAYWGQGTTLTVSS VL: DVQMNQSPSSLSASLGDPITITCHASQNIHVWLNWYQQRPGNIPRLLIYKASNLHTGVPSRFSGSGSGTGFTLTISSLQPEDIATYYCQQGQSYPYTFGGGTKLEIK
Readout Label: Kd
Test Result: 7 nM
--
Binder: A1 (antibody, V domains shown, phage campaign) VH: QVQLVQSGAEVKKPGSSVKVSCKASGYTFINHDINWVRQAPGQGLEWMGWMNPNSGNTGYAQKFQGRVTITADESTSTAYMELSSLRSEDTAVYYCARDRRGSYYGLMDWFDPWGQGTLVTVSS VL: DIQMTQSPSSLSASVGDRVTITCRASQSISRWLAWYQQKPGKAPKLLIYDASNLETGVPSRFSGSGSGTDFTLTISSLQPEDFATYYCQQSYSTPSFGQGTKVEIK
Readout Label: Kd
Test Result: 99.6 nM
--
Binder: E12 (antibody, V domains shown, B-cell cloning campaign (mice)) VH: QVQLQQSGAELAKPGASVKLSCKASGYTFTSYWIHWVKQRPGQGLEWIGYINPSSGDTEYNQKFKDKATLTADKSSNTAYMQLSSLTYEDSAVYYCARSAPDDGYYDYAMDYWGQGTSVTVSS VL: DIVMTQSRKFMSTSVGDRVSVTCKASQNVGSNVAWYQQKPGQSPKGLTYSASYRYSGVPDRFTGSGSGTDFTLTISNVQSEDLAEYFCQQYNSYPYTFGGGTKLEIK
Readout Label: Kd
Test Result: 65.6 nM
